Test system: Pseudomonas aeruginosa
TEST: Antibacterial activity against gentamicin/tobramycin-resistant Pseudomonas aeruginosa isolate CANWARD-2011 96846 after 18 hrs by microtiter dilution assay
Format: functional
EXPERIMENTAL_PARAMETERS: isolate CANWARD-2011 96846, 18 h

- MOLECULE: "Cl.Cl.Cl.Cl.Cl.Cl.Cl.NCCCC[C@H](N)C(=O)N(CCCCCCCCOC1[C@@H](O[C@H]2O[C@H](CO)[C@@H](O)[C@H](N)[C@H]2O)[C@H](N)C[C@H](N)[C@H]1O[C@H]1O[C@H](CN)[C@@H](O)C[C@H]1N)Cc1c2ccccc2c(Cl)c2ccccc12 (single isomer, unassigned)"
  MIC: "64 µg/mL"
- MOLECULE: "CCCCCCCCCCCCN(Cc1c2ccccc2c(Cl)c2ccccc12)C(=O)[C@@H](N)CCCCN.O=C(O)C(F)(F)F.O=C(O)C(F)(F)F"
  MIC: "> 128 µg/mL"
- MOLECULE: "Cl.Cl.Cl.Cl.Cl.Cl.Cl.NCCCC[C@H](N)C(=O)N(CCCCCCCCCCCCO[C@@H]1[C@@H](O[C@H]2O[C@H](CO)[C@@H](O)[C@H](N)[C@H]2O)[C@H](N)C[C@H](N)[C@H]1O[C@H]1O[C@H](CN)[C@@H](O)C[C@H]1N)Cc1c2ccccc2c(Cl)c2ccccc12"
  MIC: "32 µg/mL"
- MOLECULE: "Cl.Cl.Cl.Cl.Cl.Cl.Cl.NCCCC[C@H](N)C(=O)N(CCCCO[C@@H]1[C@@H](O[C@H]2O[C@H](CO)[C@@H](O)[C@H](N)[C@H]2O)[C@H](N)C[C@H](N)[C@H]1O[C@H]1O[C@H](CN)[C@@H](O)C[C@H]1N)Cc1c2ccccc2c(Cl)c2ccccc12"
  MIC: "> 128 µg/mL"
